B1: Protein piccolo, residues 1058 to 1114; numbered along this chain, Q9Y6V0 (parent)
chain: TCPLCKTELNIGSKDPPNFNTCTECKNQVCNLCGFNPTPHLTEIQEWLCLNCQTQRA

Variants of: B1
Assay: abundance fitness (aPCA) (normalised: wild type 0, dead -1); higher = more abundant; growth selection in yeast, the domain comes from the species named
Details: Homo sapiens
For each record, write down the corresponding abundance fitness.

Lab note: Q53A gave abundance fitness of -0.249

Lab note: N31E gave abundance fitness of 0.148

Lab note: T21E gave abundance fitness of 0.036

Lab note: V29Q gave abundance fitness of -0.212

Lab note: L48I gave abundance fitness of -0.105

Lab note: T1W gave abundance fitness of -0.516

Lab note: N18C gave abundance fitness of -0.219

Lab note: C49R gave abundance fitness of -0.782

Lab note: N20C gave abundance fitness of -0.091

Lab note: S13A gave abundance fitness of -0.37

Lab note: E8G gave abundance fitness of -0.052

Lab note: P37T gave abundance fitness of 0.079

Lab note: L48A gave abundance fitness of -0.051

Lab note: E24Q gave abundance fitness of -0.135

Lab note: C25N gave abundance fitness of -0.66

Lab note: Q45S gave abundance fitness of -0.037

Lab note: N51S gave abundance fitness of -0.247
